The measured values listed here are drawn from paper PMC11855478.

tested on: NCI-H226 (Non-Small Cell Lung Cancer); assay: NCI one dose, NCI-H226; type: cell-based, human; details: NCI-H226, 1.00E-5 Molar one dose
# reported Growth Percent; entries follow
READOUT TYPE: Growth Percent (%)

structure_as_smiles=O=C(NCc1ccccc1C(F)(F)F)[C@@H]1CS[C@H]2c3ccccc3C(=O)N12 readout_type="Growth Percent" output_unit=% experimental_result=95.46
structure_as_smiles=COc1ccc(CNC(=O)[C@@H]2CS[C@H]3c4ccccc4C(=O)N23)cc1 readout_type="Growth Percent" output_unit=% experimental_result=101.53
structure_as_smiles=O=C(NCc1ccccc1)[C@@H]1CS[C@H]2c3ccccc3C(=O)N12 readout_type="Growth Percent" output_unit=% experimental_result=86.94
structure_as_smiles=COc1cc(CNC(=O)[C@@H]2CS[C@H]3c4ccccc4C(=O)N23)cc(OC)c1OC readout_type="Growth Percent" output_unit=% experimental_result=97.62
structure_as_smiles=O=C(NCc1ccc(Cl)cc1Cl)[C@@H]1CS[C@H]2c3ccccc3C(=O)N12 readout_type="Growth Percent" output_unit=% experimental_result=95.83
structure_as_smiles=O=C(NCc1cccc(C(F)(F)F)c1)[C@@H]1CS[C@H]2c3ccccc3C(=O)N12 readout_type="Growth Percent" output_unit=% experimental_result=100.68

----------
Documented Growth Percent across a set of compounds
test system: SNB-19 (CNS Cancer); assay: NCI one dose, SNB-19; type: cell-based, human; details: SNB-19, 1.00E-5 Molar one dose
READOUT TYPE: Growth Percent (%)

structure_as_smiles=COc1cccc(CNC(=O)[C@@H]2CS[C@H]3c4ccccc4C(=O)N23)c1 measured_on="SNB-19 (CNS Cancer)" readout_type="Growth Percent" experimental_result=104.75
structure_as_smiles=C[C@@]12SC[C@@H](C(=O)NCc3cccc(C(F)(F)F)c3)N1C(=O)c1ccccc12 measured_on="SNB-19 (CNS Cancer)" readout_type="Growth Percent" experimental_result=99.21
structure_as_smiles=COc1ccccc1CNC(=O)[C@@H]1CS[C@@]2(C)c3ccccc3C(=O)N12 measured_on="SNB-19 (CNS Cancer)" readout_type="Growth Percent" experimental_result=102.87
structure_as_smiles=COc1ccc(CNC(=O)[C@@H]2CS[C@@]3(C)c4ccccc4C(=O)N23)cc1OC measured_on="SNB-19 (CNS Cancer)" readout_type="Growth Percent" experimental_result=96.85
structure_as_smiles=COc1ccc(CNC(=O)[C@@H]2CS[C@H]3c4ccccc4C(=O)N23)cc1OC measured_on="SNB-19 (CNS Cancer)" readout_type="Growth Percent" experimental_result=104.62
structure_as_smiles=C[C@@]12SC[C@@H](C(=O)NCc3ccc(Cl)cc3Cl)N1C(=O)c1ccccc12 measured_on="SNB-19 (CNS Cancer)" readout_type="Growth Percent" experimental_result=100.91
structure_as_smiles=COc1cc(CNC(=O)[C@@H]2CS[C@H]3c4ccccc4C(=O)N23)cc(OC)c1OC measured_on="SNB-19 (CNS Cancer)" readout_type="Growth Percent" experimental_result=92.64
structure_as_smiles=O=C(NCc1ccc(Cl)cc1Cl)[C@@H]1CS[C@H]2c3ccccc3C(=O)N12 measured_on="SNB-19 (CNS Cancer)" readout_type="Growth Percent" experimental_result=97.06
structure_as_smiles=COc1ccc(CNC(=O)[C@@H]2CS[C@@]3(C)c4ccccc4C(=O)N23)cc1 measured_on="SNB-19 (CNS Cancer)" readout_type="Growth Percent" experimental_result=99.83
structure_as_smiles=COc1ccc(CNC(=O)[C@@H]2CS[C@H]3c4ccccc4C(=O)N23)cc1 measured_on="SNB-19 (CNS Cancer)" readout_type="Growth Percent" experimental_result=90.14
structure_as_smiles=O=C(NCc1ccccc1C(F)(F)F)[C@@H]1CS[C@H]2c3ccccc3C(=O)N12 measured_on="SNB-19 (CNS Cancer)" readout_type="Growth Percent" experimental_result=95.80
structure_as_smiles=O=C(NCc1cccc(C(F)(F)F)c1)[C@@H]1CS[C@H]2c3ccccc3C(=O)N12 measured_on="SNB-19 (CNS Cancer)" readout_type="Growth Percent" experimental_result=95.15
structure_as_smiles=COc1cccc(CNC(=O)[C@@H]2CS[C@@]3(C)c4ccccc4C(=O)N23)c1 measured_on="SNB-19 (CNS Cancer)" readout_type="Growth Percent" experimental_result=102.99
structure_as_smiles=C[C@@]12SC[C@@H](C(=O)NCc3ccccc3C(F)(F)F)N1C(=O)c1ccccc12 measured_on="SNB-19 (CNS Cancer)" readout_type="Growth Percent" experimental_result=103.86
structure_as_smiles=C[C@@]12SC[C@@H](C(=O)NCc3ccccc3)N1C(=O)c1ccccc12 measured_on="SNB-19 (CNS Cancer)" readout_type="Growth Percent" experimental_result=100.20
structure_as_smiles=COc1ccccc1CNC(=O)[C@@H]1CS[C@H]2c3ccccc3C(=O)N12 measured_on="SNB-19 (CNS Cancer)" readout_type="Growth Percent" experimental_result=107.13
structure_as_smiles=C[C@@]12SC[C@@H](C(=O)NCc3ccccc3Br)N1C(=O)c1ccccc12 measured_on="SNB-19 (CNS Cancer)" readout_type="Growth Percent" experimental_result=100.80
structure_as_smiles=O=C(NCc1ccccc1)[C@@H]1CS[C@H]2c3ccccc3C(=O)N12 measured_on="SNB-19 (CNS Cancer)" readout_type="Growth Percent" experimental_result=96.70
structure_as_smiles=COc1cc(CNC(=O)[C@@H]2CS[C@@]3(C)c4ccccc4C(=O)N23)cc(OC)c1OC measured_on="SNB-19 (CNS Cancer)" readout_type="Growth Percent" experimental_result=93.01

----------
system: KM12 (Colon Cancer); assay: NCI one dose, KM12; format: cell-based, human; conditions: KM12, 1.00E-5 Molar one dose
READOUT TYPE: Growth Percent (%)

structure_as_smiles=COc1ccccc1CNC(=O)[C@@H]1CS[C@H]2c3ccccc3C(=O)N12 measured_on="KM12 (Colon Cancer)" output_unit=% experimental_result=105.74
structure_as_smiles=O=C(NCc1cccc(C(F)(F)F)c1)[C@@H]1CS[C@H]2c3ccccc3C(=O)N12 measured_on="KM12 (Colon Cancer)" output_unit=% experimental_result=98.82
structure_as_smiles=COc1cccc(CNC(=O)[C@@H]2CS[C@H]3c4ccccc4C(=O)N23)c1 measured_on="KM12 (Colon Cancer)" output_unit=% experimental_result=100.40
structure_as_smiles=C[C@@]12SC[C@@H](C(=O)NCc3ccc(Cl)cc3Cl)N1C(=O)c1ccccc12 measured_on="KM12 (Colon Cancer)" output_unit=% experimental_result=101.11
structure_as_smiles=COc1cc(CNC(=O)[C@@H]2CS[C@H]3c4ccccc4C(=O)N23)cc(OC)c1OC measured_on="KM12 (Colon Cancer)" output_unit=% experimental_result=103.41

----------
system: 786-0 (Renal Cancer); assay: NCI one dose, 786-0; assay type: cell-based, human; conditions: 786-0, 1.00E-5 Molar one dose
READOUT TYPE: Growth Percent

structure_as_smiles=COc1cccc(CNC(=O)[C@@H]2CS[C@H]3c4ccccc4C(=O)N23)c1 experimental_result=102.72%
structure_as_smiles=COc1ccc(CNC(=O)[C@@H]2CS[C@H]3c4ccccc4C(=O)N23)cc1OC experimental_result=106.53%
structure_as_smiles=O=C(NCc1ccc(Cl)cc1Cl)[C@@H]1CS[C@H]2c3ccccc3C(=O)N12 experimental_result=89.83%
structure_as_smiles=O=C(NCc1cccc(C(F)(F)F)c1)[C@@H]1CS[C@H]2c3ccccc3C(=O)N12 experimental_result=88.74%
structure_as_smiles=COc1cc(CNC(=O)[C@@H]2CS[C@@]3(C)c4ccccc4C(=O)N23)cc(OC)c1OC experimental_result=102.08%
structure_as_smiles=C[C@@]12SC[C@@H](C(=O)NCc3ccccc3C(F)(F)F)N1C(=O)c1ccccc12 experimental_result=101.91%
structure_as_smiles=COc1ccccc1CNC(=O)[C@@H]1CS[C@H]2c3ccccc3C(=O)N12 experimental_result=107.93%
structure_as_smiles=COc1ccc(CNC(=O)[C@@H]2CS[C@@]3(C)c4ccccc4C(=O)N23)cc1 experimental_result=98.12%
structure_as_smiles=C[C@@]12SC[C@@H](C(=O)NCc3ccc(Cl)cc3Cl)N1C(=O)c1ccccc12 experimental_result=103.58%
structure_as_smiles=O=C(NCc1ccccc1)[C@@H]1CS[C@H]2c3ccccc3C(=O)N12 experimental_result=85.46%

----------
system: HL-60(TB) (Leukemia); assay: NCI one dose, HL-60(TB); type: cell-based, human; details: 1.00E-5 Molar one dose
READOUT TYPE: Growth Percent (%)

structure_as_smiles=COc1cc(CNC(=O)[C@@H]2CS[C@H]3c4ccccc4C(=O)N23)cc(OC)c1OC experimental_result=96.47
structure_as_smiles=O=C(NCc1ccccc1C(F)(F)F)[C@@H]1CS[C@H]2c3ccccc3C(=O)N12 experimental_result=101.08
structure_as_smiles=O=C(NCc1ccccc1)[C@@H]1CS[C@H]2c3ccccc3C(=O)N12 experimental_result=102.43
structure_as_smiles=COc1ccc(CNC(=O)[C@@H]2CS[C@H]3c4ccccc4C(=O)N23)cc1 experimental_result=97.30
structure_as_smiles=O=C(NCc1cccc(C(F)(F)F)c1)[C@@H]1CS[C@H]2c3ccccc3C(=O)N12 experimental_result=96.47
structure_as_smiles=O=C(NCc1ccc(Cl)cc1Cl)[C@@H]1CS[C@H]2c3ccccc3C(=O)N12 experimental_result=93.16
